Protocol details: Cellular uptake in human T lymphocytes at 3 to 20 uM after 3 hrs by LC-MS/MS analysis relative to azithromycin
Format: ADME, cell-based
Condition description: t-cell
Value kind: Drug uptake (%)

I. CCCCCCCC(=O)NCCCN1C[C@H](C)C[C@@](C)(O)[C@H](O[C@@H]2O[C@H](C)C[C@H](N(C)C)[C@H]2O)[C@@H](C)[C@H](O[C@H]2C[C@@](C)(OC)[C@@H](O)[C@H](C)O2)[C@@H](C)C(=O)O[C@H](CC)[C@@](C)(O)[C@H](O)[C@H]1C
II. CCCCCCCC(=O)NCCCN(C)[C@H]1C[C@@H](C)O[C@@H](O[C@@H]2[C@@H](C)[C@H](O[C@H]3C[C@@](C)(OC)[C@@H](O)[C@H](C)O3)[C@@H](C)C(=O)O[C@H](CC)[C@@](C)(O)[C@H](O)[C@@H](C)N(C)C[C@H](C)C[C@@]2(C)O)[C@@H]1O
Incoming: Hi, I'm comparing I with II and wondering which one has the bigger number for Drug uptake. Any idea? In your reply, give the label of the chosen option.
Outgoing: II
(II: 460%, I: 127%)

Cited source for all entries: ChEMBL document CHEMBL2177068
